pIC50 overview
# measurement-notes: Inhibition of PK/LDH (unknown origin)
Please note pIC50 is a logarithmic value: minus log10 of concentration in mol/L. Answer with that number alone.

structure-smiles | readout-type | observed-measurement
CCCn1c(C)cc(-c2csc(NC(=O)c3ccco3)n2)c1C | pIC50 | 4.19

Kindly consider the entry below.
[ask] Hello, please tell me recorded pIC50 for this one: CCCn1c(C)cc(-c2csc(NC(=O)c3cccs3)n2)c1C
[reply] 4.25

* * *

# Tested on: Escherichia coli
# measurement-notes: Antimicrobial activity against Escherichia coli harboring delta tolC mutant assessed as growth inhibition at 50 uM relative to control
# Type: functional
inhibition at 50 µM vs 10%: at or above is y, below is n.

Example entries and their recorded answers appear below.
structure-smiles | discrete-label
Cc1cc(-c2csc(NC(=O)[C@@H](NC(=O)OC(C)(C)C)N[C@@H](CC(C)C)C(=O)O)n2)c(C)n1C | n
Cc1cc(-c2csc(NC(=O)[C@@H](NC(=O)OC(C)(C)C)N[C@@H](Cc3ccc(O)cc3)C(=O)O)n2)c(C)n1C | y
CCCn1c(C)cc(-c2csc(NC(=O)c3cccs3)n2)c1C | y
CCn1c(C)cc(-c2csc(NC(=O)[C@H](NCC(=O)O)NC(=O)OC(C)(C)C)n2)c1C | y

[ask] Is reported inhibition at 50 µM greater than or equal to 10% here: Cc1cc(-c2csc(NC(=O)[C@@H](NC(=O)OC(C)(C)C)N[C@H](C(=O)O)C(C)C)n2)c(C)n1C
[reply] y
